- assay overview: Plasma concentration in CD rat at 10 mg/kg, po after 3 hrs
- Type: ADME, organism-based
- Parameters: dose 10 mg/kg, route oral
property: concentration at 3 h (µM)

# compound string, result value
data = [
    ("COc1cc(/C=C2\\CCCN3C2=NO[C@]3(CO)c2ccc(F)cc2)ccc1-n1cnc(C)c1", 3.6),
]

* * *

AUC listing for selected molecules.
- assay overview: AUC in rat at 10 mg/kg, po
- Format: ADME, organism-based, Plasma
- Set-up: dose 10 mg/kg, route oral
- condition context: plasma
property: AUC (µM·h)

# compound string, property, scale unit, result value
measured = [
    ("COc1cc(/C=C2\\CCCN3C2=NO[C@]3(CO)c2ccc(F)cc2)ccc1-n1cnc(C)c1", "AUC", "µM·h", 61),
    ("COc1cc(/C=C2\\CCCN3C2=NOC[C@@H]3c2cc(F)c(F)c(F)c2)ccc1-n1cnc(C)c1", "AUC", "µM·h", 265),
]

* * *

- assay overview: Cmax in rat at 10 mg/kg, po
- Format: ADME, organism-based
- Parameters: dose 10 mg/kg, route oral
- condition context: in vivo

# compound, Cmax / µM
rows = [
    ("COc1cc(/C=C2\\CCCN3C2=NOC3(C)c2ccc(F)cc2)ccc1-n1cnc(C)c1 (single isomer, unassigned)", 4.9),
    ("COc1cc(/C=C2\\CCCN3C2=NO[C@]3(CO)c2ccc(F)cc2)ccc1-n1cnc(C)c1", 7.5),
    ("COc1cc(/C=C2\\CCCN3C2=NOC[C@@H]3c2cc(F)c(F)c(F)c2)ccc1-n1cnc(C)c1", 19.8),
]

* * *

- assay overview: Aqueous solubility of the compound at pH 3.5
- Type: physicochemical
- condition context: aqueous medium

# compound string, solubility
rows = [
    ("COc1cc(/C=C2\\CCCN3C2=NOC[C@@H]3c2cc(F)c(F)c(F)c2)ccc1-n1cnc(C)c1.Cl", "> 100 mM"),
]

* * *

- assay overview: Cmax in dog at 10 mg/kg, po
- Format: ADME, organism-based, Canis lupus familiaris
- Parameters: dose 10 mg/kg, route oral
- condition context: in vivo
molecules and their reported Cmax

# molecule, Cmax
records = [
    ("COc1cc(/C=C2\\CCCN3C2=NOC[C@@H]3c2cc(F)c(F)c(F)c2)ccc1-n1cnc(C)c1", "7.9 µM"),
    ("COc1cc(/C=C2\\CCCN3C2=NO[C@]3(CO)c2ccc(F)cc2)ccc1-n1cnc(C)c1", "4 µM"),
    ("COc1cc(/C=C2\\CCCN3C2=NOC3(C)c2ccc(F)cc2)ccc1-n1cnc(C)c1 (single isomer, unassigned)", "5.3 µM"),
]

* * *

- system name: Gamma-secretase
- assay overview: Modulation of gamma-secretase-mediated cleavage of human APP Swedish and London mutation expressed in HEK293 cells assessed as reduction of total amyloid beta level after 5 hrs by sandwich immunoassay
- Format: cell-based

# compound, IC50
records = [
    ("COc1cc(/C=C2\\CCCN3C2=NO[C@]3(CN(C)C)c2ccc(F)cc2)ccc1-n1cnc(C)c1", "18.8 µM"),
    ("COc1cc(/C=C2\\CCCN3C2=NOC3(CO)c2ccccc2)ccc1-n1cnc(C)c1 (single isomer, unassigned)", "3.21 µM"),
    ("COc1cc(/C=C2\\CCCN3C2=NO[C@]3(CN(C)C(C)=O)c2ccc(F)cc2)ccc1-n1cnc(C)c1", "> 20 µM"),
    ("COc1cc(/C=C2\\CCCN3C2=NO[C@@]3(c2ccc(F)cc2)[C@H](C)O)ccc1-n1cnc(C)c1", "> 20 µM"),
]

* * *

- system name: Gamma-secretase (Homo sapiens) (UniProt Q96BI3+Q9NZ42+Q8WW43+P49768+Q92542+P49810)
- assay overview: Modulation of gamma-secretase-mediated cleavage of human APP Swedish and London mutation expressed in HEK293 cells assessed as reduction of total amyloid beta/amyloid beta42 ratio after 5 hrs by sandwich immunoassay
- Assay type: cell-based
Would you please tag the item fulfilled when its Ratio IC50 is 200 or above, and not fulfilled when it is below?

# compound, answer label
rows = [
    ("COC[C@]1(c2ccc(F)cc2)ON=C2/C(=C/c3ccc(-n4cnc(C)c4)c(OC)c3)CCCN21", "not fulfilled"),
    ("COc1cc(/C=C2\\CCCN3C2=NOC3(CO)c2cc(F)c(F)c(F)c2)ccc1-n1cnc(C)c1 (single isomer, unassigned)", "fulfilled"),
    ("COc1cc(/C=C2\\CCCN3C2=NOC3(C)c2ccc(F)cc2)ccc1-n1cnc(C)c1 (single isomer, unassigned)", "fulfilled"),
    ("COc1cc(/C=C2\\CCCN3C2=NOC3(CO)c2cccc(F)c2)ccc1-n1cnc(C)c1 (single isomer, unassigned)", "fulfilled"),
    ("COc1cc(/C=C2\\CCCN3C2=NOC3(CO)c2ccc(F)cn2)ccc1-n1cnc(C)c1 (single isomer, unassigned)", "not fulfilled"),
    ("COc1cc(/C=C2\\CCCN3C2=NOC3(CO)c2ccccc2)ccc1-n1cnc(C)c1 (single isomer, unassigned)", "not fulfilled"),
    ("COc1cc(/C=C2\\CCCN3C2=NO[C@@]3(c2ccc(F)cc2)[C@H](C)O)ccc1-n1cnc(C)c1", "fulfilled"),
    ("COc1cc(/C=C2\\CCCN3C2=NO[C@]3(CN(C)S(C)(=O)=O)c2ccc(F)cc2)ccc1-n1cnc(C)c1", "fulfilled"),
    ("COc1cc(/C=C2\\CCCN3C2=NO[C@@]3(c2ccc(F)cc2)[C@@H](C)O)ccc1-n1cnc(C)c1", "fulfilled"),
    ("COc1cc(/C=C2\\CCCN3C2=NO[C@]3(CN(C)C)c2ccc(F)cc2)ccc1-n1cnc(C)c1", "not fulfilled"),
    ("COc1cc(/C=C2\\CCCN3C2=NOC3(CO)c2cc(F)cc(F)c2)ccc1-n1cnc(C)c1 (single isomer, unassigned)", "fulfilled"),
    ("COc1cc(/C=C2\\CCCN3C2=NOC3(CO)c2ccccc2F)ccc1-n1cnc(C)c1 (single isomer, unassigned)", "not fulfilled"),
    ("COc1cc(/C=C2\\CCCN3C2=NO[C@]3(CNCCO)c2ccc(F)cc2)ccc1-n1cnc(C)c1", "fulfilled"),
]

* * *

- assay overview: Drug level in rat brain at 10 mg/kg, po after 3 hrs
- Type: ADME, organism-based
- Set-up: dose 10 mg/kg, route oral
- condition context: read-out: Drug uptake
property: concentration at 3 h (µM)

# compound, result value
records = [
    ("COc1cc(/C=C2\\CCCN3C2=NOC3(C)c2ccc(F)cc2)ccc1-n1cnc(C)c1 (single isomer, unassigned)", 5),
]

* * *

Entries and their measured IC50 follow.
- system name: Gamma-secretase
- assay overview: Modulation of gamma-secretase-mediated cleavage of human APP Swedish and London mutation expressed in HEK293 cells assessed as inhibition of amyloid beta40 production after 5 hrs by sandwich immunoassay
- Type: cell-based
property: IC50 (nM)

# molecule, scale unit, result value
data = [
    ("COc1cc(/C=C2\\CCCN3C2=NOC[C@@H]3c2cc(F)c(F)c(F)c2)ccc1-n1cnc(C)c1", "nM", 123),
    ("COc1cc(/C=C2\\CCCN3C2=NOC3(C)c2ccc(F)cc2)ccc1-n1cnc(C)c1 (single isomer, unassigned)", "nM", 267),
    ("COCCCN1C(/C=C/c2ccc(-n3cnc(C)c3)c(OC)c2)=NOC1(C)c1ccc(F)cc1 (racemic)", "nM", 2000),
    ("COc1cc(/C=C2\\CCCN3C2=NO[C@]3(CO)c2ccc(F)cc2)ccc1-n1cnc(C)c1", "nM", 170),
]

* * *

- assay overview: Lipophilicity, log D of the compound at pH 7.4
- Assay type: physicochemical
- condition context: buffer

# compound string, logD
records = [
    ("COc1cc(/C=C2\\CCCN3C2=NOC[C@@H]3c2cc(F)c(F)c(F)c2)ccc1-n1cnc(C)c1.Cl", 5.29),
]

* * *

pKa for assorted compounds
- assay overview: Dissociation constant, pKa of the compound
- Format: physicochemical
property: pKa

# compound, result value
measured = [
    ("COc1cc(/C=C2\\CCCN3C2=NOC3(C)c2ccc(F)cc2)ccc1-n1cnc(C)c1 (single isomer, unassigned)", 6.7),
    ("COc1cc(/C=C2\\CCCN3C2=NOC[C@@H]3c2cc(F)c(F)c(F)c2)ccc1-n1cnc(C)c1", 2.7),
    ("COc1cc(/C=C2\\CCCN3C2=NO[C@@]3(CO)c2ccc(F)cc2)ccc1-n1cnc(C)c1", 5.8),
    ("c1ccc(-n2ccnc2)cc1", 5.1),
]

* * *

- assay overview: Permeability from apical to basolateral side of human Caco2 cells
- Assay type: ADME, cell-based
- condition context: Caco-2, read-out: permeability

# compound, Papp A→B, ×10⁻⁶ cm/s
records = [
    ("COc1cc(/C=C2\\CCCN3C2=NOC3(C)c2ccc(F)cc2)ccc1-n1cnc(C)c1 (single isomer, unassigned)", 34.6),
    ("COc1cc(/C=C2\\CCCN([C@@H](C)c3ccc(F)cc3)C2=O)ccc1-n1cnc(C)c1", 57.9),
    ("COc1cc(/C=C2\\CCCN3C2=NOC[C@@H]3c2cc(F)c(F)c(F)c2)ccc1-n1cnc(C)c1", 24.6),
    ("COc1cc(/C=C2\\CCCN3C2=NO[C@]3(CO)c2ccc(F)cc2)ccc1-n1cnc(C)c1", 30.2),
]
